Where do the numbers come from? From ChEMBL document CHEMBL3813689.

Assay: Terminal half life in Sprague-Dawley rat at 5 mg/kg, iv administered as single dose
Assay type: ADME, organism-based
Details: in vivo, read-out: beta t1/2 (converted)
Endpoint Label: half-life
Answer format reminder: number followed by unit.

Would you mind telling me what half-life value was observed for `CN(C/C=C/c1ccc(C(F)(F)F)cc1)Cc1cccc2ccoc12.Cl` ?
494 min

----------
Experiment: Total plasma clearance in Sprague-Dawley rat at 5 mg/kg, iv administered as single dose
Assay type: ADME, organism-based
Endpoint Label: clearance (mL/min/kg)
Answer with a number only, understood to be in mL/min/kg.

Suppose we examine the molecule `CN(C/C=C/c1ccc(C(F)(F)F)cc1)Cc1cccc2ccoc12.Cl` ; what clearance value has been reported?
54.3

----------
Experiment: Aqueous solubility of the compound by HPLC method
Format: physicochemical
So I've got a bunch of compounds here, and I need their solubility values.
API: value field is a number in µg/mL; no unit string.

Consider the compound shown here: `CN(C/C=C/c1ccc(C(F)(F)F)cc1)Cc1cccc2ccoc12.Cl` What is its recorded solubility?
10000

Fill in: solubility of `CN(C/C=C/c1ccc(Cl)cc1Cl)Cc1cccc2ccoc12.Cl` is ___
7200

Item under review: `CN(C/C=C/c1ccc(Cl)cc1)Cc1cccc2ccoc12.Cl` . Reported solubility?
7400

// query solubility value for entry `COc1ccc(/C=C/CN(C)Cc2cccc3ccoc23)cc1.Cl`
19700

Requested field: solubility. Item: `CN(C/C=C/c1ccc(Br)cc1)Cc1cccc2ccoc12.Cl`
3900

----------
Biological target: UniProt Q12809
Experiment: Inhibition of human ERG expressed in CHO cells by Qpatch-clamp method
Endpoint Label: IC50 (µM)
Kindly provide the numeric value in µM only, without the unit symbol.

# returns recorded IC50 (system: UniProt Q12809) for `CN(C/C=C/c1ccc(C(F)(F)F)cc1)Cc1cccc2ccoc12.Cl`
3.71

----------
Test: Cytotoxicity against human WI38 cells measure after 72 hrs by SRB assay
Type: cell-based
Details: WI-38, 72 h
Endpoint Label: pIC50
Please note pIC50 is a logarithmic value: minus log10 of concentration in mol/L. Answer with that number alone.

Name the reported pIC50 value associated with the molecule `CN(C/C=C/c1ccc(C(F)(F)F)cc1)Cc1cccc2ccoc12.Cl`
4.32

----------
Assay: Oral bioavailability in Sprague-Dawley rat at 10 mg/kg administered as single dose
Format: ADME, organism-based
Conditions: in vivo
Endpoint Label: bioavailability (%)
Form entry: value (%) — number only.

Look up bioavailability: `CN(C/C=C/c1ccc(C(F)(F)F)cc1)Cc1cccc2ccoc12.Cl`
42.2

----------
System: Staphylococcus aureus
Test: Inhibition of staphyloxanthin pigment formation in methicillin-resistant Staphylococcus aureus USA300 LAC after 48 hrs by spectrophotometric method
Type: functional, organism-based
Endpoint Label: pIC50
Would you please state pIC50, meaning minus log10 of the concentration in mol/L, as a bare number?

Record request: pIC50 value, item `CN(C/C=C/c1ccc(C(F)(F)F)cc1)Cc1cccc2ccoc12.Cl`
8.47

----------
Target: 4,4'-diapophytoene desaturase (4,4'-diaponeurosporene-forming) (Staphylococcus aureus (strain Newman), UniProt O07855)
Experiment: Inhibition of Staphylococcus aureus Newman 6His-tagged CrtN expressed in Escherichia coli BL21(DE3) using diapophytoene as substrate assessed as pigment formation after overnight incubation by spectrophotometric method
Endpoint Label: IC50 (nM)
Give the value, in units of nM, as a plain number.

What does the data say about its IC50? Entry: `CN(C/C=C/c1ccc(C(F)(F)F)cc1)Cc1cccc2ccoc12.Cl`
339

Fill blank: measured IC50 of the compound `COc1ccc(/C=C/CN(C)Cc2cccc3ccoc23)cc1.Cl` is ____.
684

For the compound `CN(C/C=C/c1ccc(Cl)cc1Cl)Cc1cccc2ccoc12.Cl` , what IC50 is on record?
740

So what does the record say about IC50 for `CN(C/C=C/c1ccc(Br)cc1)Cc1cccc2ccoc12.Cl` ?
355

Can you look up the measured IC50 of `CN(C/C=C/c1ccc(Cl)cc1)Cc1cccc2ccoc12.Cl` for me?
219

----------
Assay: Volume of distribution at steady state in Sprague-Dawley rat at 5 mg/kg, iv administered as single dose
Format: ADME, organism-based
Conditions: in vivo, read-out: Vdss
Endpoint Label: Vd (L/kg)
Use L/kg as the unit, but write only the number.

Item `CN(C/C=C/c1ccc(C(F)(F)F)cc1)Cc1cccc2ccoc12.Cl` has what recorded Vd?
10.7
